- condition notes: 343.15 K; 30000 kPa; Liquid
I'd appreciate it if you could supply mass density values for the items below.
Numbers only, in kg/m3.

CCn1cc[n+](C)c1.O=S(=O)([N-]S(=O)(=O)C(F)(F)F)C(F)(F)F    1496
CCCCCCCn1cc[n+](C)c1.O=S(=O)([N-]S(=O)(=O)C(F)(F)F)C(F)(F)F    1328
CCCCCCCCn1cc[n+](C)c1.O=S(=O)([N-]S(=O)(=O)C(F)(F)F)C(F)(F)F    1303

Q: What does the record list as mass density for CCn1cc[n+](C)c1.F[B-](F)(F)F [1-ethyl-3-methylimidazolium tetrafluoroborate] ?
Ans: 1279

----------
- condition notes: 323.15 K; 100 kPa; Liquid
Numbers after ± are expanded uncertainties.
I'd appreciate it if you could supply mass density values for the items below.
A complete answer gives the number and then names the unit.

CCn1cc[n+](C)c1.O=S(=O)([N-]S(=O)(=O)C(F)(F)F)C(F)(F)F    1493 ± 4 kg/m3
CCCCCCCn1cc[n+](C)c1.O=S(=O)([N-]S(=O)(=O)C(F)(F)F)C(F)(F)F    1322 ± 3 kg/m3
CCCCCCCCn1cc[n+](C)c1.O=S(=O)([N-]S(=O)(=O)C(F)(F)F)C(F)(F)F    1296 ± 3 kg/m3

Let us examine a further case.
Q: What does the record list as mass density for CCn1cc[n+](C)c1.F[B-](F)(F)F [1-ethyl-3-methylimidazolium tetrafluoroborate] ?
Ans: 1280 ± 2 kg/m3

----------
- condition notes: 323.15 K; 5000 kPa; Liquid
Numbers after ± are expanded uncertainties.
quantity: mass density
A complete answer gives the number and then names the unit.

Worked examples, 3 compounds total:
CCn1cc[n+](C)c1.F[B-](F)(F)F [1-ethyl-3-methylimidazolium tetrafluoroborate]    1282 ± 3 kg/m3
CCn1cc[n+](C)c1.O=S(=O)([N-]S(=O)(=O)C(F)(F)F)C(F)(F)F    1496 ± 4 kg/m3
CCCCCCCn1cc[n+](C)c1.O=S(=O)([N-]S(=O)(=O)C(F)(F)F)C(F)(F)F    1326 ± 4 kg/m3

Let us examine a further case.
Q: What does the record list as mass density for CCCCCCCCn1cc[n+](C)c1.O=S(=O)([N-]S(=O)(=O)C(F)(F)F)C(F)(F)F ?
Ans: 1299 ± 3 kg/m3

----------
I'd appreciate it if you could supply mass density values for the items below.
- condition notes: 303.15 K; 1000 kPa; Liquid
Numbers only, in kg/m3.

Worked examples, 3 molecules total:
CCCCCCCn1cc[n+](C)c1.O=S(=O)([N-]S(=O)(=O)C(F)(F)F)C(F)(F)F    1343
CCn1cc[n+](C)c1.O=S(=O)([N-]S(=O)(=O)C(F)(F)F)C(F)(F)F    1515
CCn1cc[n+](C)c1.F[B-](F)(F)F [1-ethyl-3-methylimidazolium tetrafluoroborate]    1296

Let us examine a further case.
Q: What does the record list as mass density for CCCCCCCCn1cc[n+](C)c1.O=S(=O)([N-]S(=O)(=O)C(F)(F)F)C(F)(F)F ?
Ans: 1316

----------
- condition notes: 323.15 K; 7500 kPa; Liquid
I'd appreciate it if you could supply mass density values for the items below.
Answers are plain numbers, in kg/m3.

CCCCCCCn1cc[n+](C)c1.O=S(=O)([N-]S(=O)(=O)C(F)(F)F)C(F)(F)F    1328
CCn1cc[n+](C)c1.O=S(=O)([N-]S(=O)(=O)C(F)(F)F)C(F)(F)F    1498

Quick request: mass density for each listed item, please.
1. CCn1cc[n+](C)c1.F[B-](F)(F)F [1-ethyl-3-methylimidazolium tetrafluoroborate]
2. CCCCCCCCn1cc[n+](C)c1.O=S(=O)([N-]S(=O)(=O)C(F)(F)F)C(F)(F)F

Ans:
1. 1283
2. 1301

Values were extracted from the NIST ThermoML archive (doi:10.1021/je700205n).
